Test system: HCI03 (cells of an ER-positive luminal breast cancer xenograft);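 further: PDX cells carrying CMV promoter-driven luciferase, viability read as total photon flux per second by IVIS imaging following D-luciferin, vehicle control 0.1% DMSO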
Assay: cell viability (% of vehicle); higher = less cytotoxic
Conditions: 10 µM; 72 h
Kindly state cell viability for each of the entries shown.
Answers are plain numbers.

[[record]]
molecule = "COc1cccc2c1C(=O)c1c(O)c3c(c(O)c1C2=O)CC(O)(C(=O)CO)CC3OC1CC(N)C(O)C(C)O1 (stereo not drawn)"
endpoint_result = 188

[[record]]
molecule = "O=C(O)CCNC(=O)c1ccc(/N=N/c2ccc(O)c(C(=O)O)c2)cc1 [Balsalazide]"
endpoint_result = 120

[[record]]
molecule = "CN(CC=CC#CC(C)(C)C)Cc1cccc2ccccc12.Cl [Terbinafine HCl]"
endpoint_result = 99

[[record]]
molecule = "O=c1nc[nH]c2c1ncn2C1CCC(CO)O1 (stereo not drawn)"
endpoint_result = 139


Please give cell viability, item by item, for the list that follows.
1. Cl.c1ccc(CC2=NCCN2)cc1 [Tolazoline HCl]
2. Cc1c(NC(=O)c2cccnc2)c(=O)n(-c2ccccc2)n1C

100
95.9

Please give cell viability, item by item, for the list that follows.
1. CN(C)c1cc(NC(=O)CNC(C)(C)C)c(O)c2c1CC1CC3C(N(C)C)C(=O)C(C(N)=O)=C(O)C3(O)C(=O)C1=C2O (stereo not drawn)
2. CC(C)CC(NC(=O)CNC(=O)c1cc(Cl)ccc1Cl)B(O)O (stereo not drawn)

[121, 116]

###

Tested on: HCI01 (cells of a triple-negative basal-like breast cancer xenograft);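 further: cells dissociated from PDX tumors propagated in female NSG mouse mammary fat pads, vehicle control 0.1% DMSO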
Assay: cell viability (% of vehicle); higher = less cytotoxic
Settings: 1 µM; 72 h
Kindly state cell viability for each of the entries shown.
Numbers only.

Please review the entries below; each comes with its answer.
[[record]]
compound = "Clc1ccc(C(Cn2ccnc2)OCc2ccsc2Cl)c(Cl)c1 (centres undefined)"
tested_target = "HCI01"
endpoint_result = 98.7

[[record]]
compound = "C=CC(=O)Nc1cc(Nc2nccc(-c3cn(C)c4ccccc34)n2)c(OC)cc1N(C)CCN(C)C"
tested_target = "HCI01"
endpoint_result = 57.6

[[record]]
compound = "COc1cccc2c1C(=O)c1c(O)c3c(c(O)c1C2=O)CC(O)(C(=O)CO)CC3OC1CC(N)C(O)C(C)O1.Cl (centres undefined) [Epirubicin HCl]"
tested_target = "HCI01"
endpoint_result = 105

[[record]]
compound = "COC(=O)c1ccc2c(c1)NC(=O)C2=C(Nc1ccc(N(C)C(=O)CN2CCN(C)CC2)cc1)c1ccccc1"
tested_target = "HCI01"
endpoint_result = 83.1

[[record]]
compound = "CC(C)CC(NC(=O)CNC(=O)c1cc(Cl)ccc1Cl)B(O)O (centres undefined)"
tested_target = "HCI01"
endpoint_result = 51.7


Please give cell viability, item by item, for the list that follows.
1. CO[C@@]12[C@H](COC(N)=O)C3=C(C(=O)C(C)=C(N)C3=O)N1C[C@@H]1N[C@@H]12
2. CN(C)c1ccc(C(=C2C=CC(=[N+](C)C)C=C2)c2ccc(N(C)C)cc2)cc1.[Cl-]
3. COC1=C(OC)C(=O)C(CCCCCCCCCCO)=C(C)C1=O
4. CN1CCC(COc2cnc(-c3cccc(Cn4nc(-c5cccc(C#N)c5)ccc4=O)c3)nc2)CC1
5. C#Cc1cccc(Nc2ncnc3cc(OCCOC)c(OCCOC)cc23)c1.Cl [Erlotinib Hydrochloride]

59.3
74.7
91.1
83.2
63.1

Please give cell viability, item by item, for the list that follows.
1. O=C1C=CC=CC1=C1NC(=C2C=CC=CC2=O)N(c2ccc(C(=O)O)cc2)N1
2. Cc1nc(NC(=O)N2CCCC2C(N)=O)sc1-c1ccnc(C(C)(C)C(F)(F)F)c1 (centres undefined)

[87.9, 74]

Please give cell viability, item by item, for the list that follows.
1. CCOc1nc2cccc(C(=O)OC(C)OC(=O)OC3CCCCC3)c2n1Cc1ccc(-c2ccccc2-c2nn[nH]n2)cc1 (centres undefined)
2. CC(CCC(=O)O)C1CCC2C3CCC4CC(O)CCC4(C)C3CCC12C (centres undefined)
3. Cl.Fc1ccc(C2CCNCC2COc2ccc3c(c2)OCO3)cc1 (centres undefined) [Paroxetine HCl]
4. CNC(=O)c1cc(Oc2ccc(NC(=O)Nc3ccc(Cl)c(C(F)(F)F)c3)c(F)c2)ccn1.Cl [Regorafenib hydrochloride]
5. CC(C)C1=CC(=C2NNC(=O)N2c2ccc3c(ccn3C)c2)C(=O)C=C1O [Ganetespib (STA-9090)]

1: 88.5; 2: 89.2; 3: 91.6; 4: 104; 5: 83.9

Please give cell viability, item by item, for the list that follows.
1. Cc1ccc(NC(=O)c2ccc(CN3CCN(C)CC3)cc2)cc1Nc1nc(-c2cccnc2)cs1
2. CCC(=C(c1ccccc1)c1ccc(OCCN(C)C)cc1)c1ccccc1.O=C(O)CC(O)(CC(=O)O)C(=O)O [Tamoxifen Citrate]
3. CC1(COc2ccc3c(c2)ncn3-c2ccc3cccc(N4CCC(N)CC4)c3n2)COC1
4. CNCCC(Oc1cccc2ccccc12)c1cccs1.Cl (centres undefined) [Duloxetine HCl]
5. C=CC(=O)N1CCC(Oc2cc3c(Nc4ccc(Cl)c(Cl)c4F)ncnc3cc2OC)CC1
6. CCN(CC)CCNC(=O)c1c(C)[nH]c(C=C2C(=O)Nc3ccc(F)cc32)c1C.O=C(O)CC(O)C(=O)O [Sunitinib malate]
7. C=C1C(=CC=C2CCCC3(C)C2CCC3C(C)CCCC(C)(C)O)CC(O)CC1O (centres undefined)
8. CC(C)C[C@H](NC(=O)[C@H](Cc1ccccc1)NC(=O)c1cnccn1)B(O)O

1. 113
2. 111
3. 97.6
4. 85.4
5. 62.3
6. 73.4
7. 70.8
8. 32.8
